target: Sphingosine 1-phosphate receptor 5 (Homo sapiens, UniProt Q9H228); assay: Antagonist activity at human S1P5R receptor expressed in CHO cell membranes by [35S]GTPgamma binding assay
Sequence (Q9H228 whole entry): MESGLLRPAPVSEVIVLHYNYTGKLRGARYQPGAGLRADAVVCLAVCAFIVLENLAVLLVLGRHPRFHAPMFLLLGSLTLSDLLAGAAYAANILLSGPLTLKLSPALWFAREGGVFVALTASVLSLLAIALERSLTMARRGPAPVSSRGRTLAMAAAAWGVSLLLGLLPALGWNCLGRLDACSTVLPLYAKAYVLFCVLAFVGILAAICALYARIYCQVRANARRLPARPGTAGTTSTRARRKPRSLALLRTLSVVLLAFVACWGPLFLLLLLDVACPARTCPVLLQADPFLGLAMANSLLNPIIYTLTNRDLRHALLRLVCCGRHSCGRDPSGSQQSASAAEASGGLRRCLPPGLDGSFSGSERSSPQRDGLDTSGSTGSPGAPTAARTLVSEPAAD
Measured endpoint: IC50 (nM)
Report the value in nM with no unit label.

query: Data request, read-out IC50, for Cc1cc(S(=O)(=O)Nc2cccc(-c3cc(C)c(C(=O)N(C)[C@@H](CCN(C)C)C(=O)O)c(C)c3)c2)c(C)cc1Cl
result: 978

---

assay: Stability in pH 10 buffer assessed as compound remaining measured after 2 hrs by UPLC; type: physicochemical; details: read-out: Stability
Measured endpoint: remaining at 2 h
Could you write the number and then its unit?

query: Can you share its remaining at 2 h? I mean this compound: COC(=O)[C@H](CCN(C)C)N(C)C(=O)c1c(C)cc(-c2cccc(NS(=O)(=O)c3cc(C)c(Cl)cc3C)c2)cc1C
result: 52%

---

target: Sphingosine 1-phosphate receptor 5 (Homo sapiens); assay: Agonist activity at human S1P5R receptor expressed in CHO cell membranes by [35S]GTPgamma binding assay
Measured endpoint: EC50

query: Using the record for Cc1cc(S(=O)(=O)Nc2cccc(-c3cc(C)c(C(=O)N(C)[C@@H](CCN(C)C)C(=O)O)c(C)c3)c2)c(C)cc1Cl , report its EC50.
result: > 10 µM

---

test system: Rattus norvegicus; experiment: Reduction in peripheral blood lymphocytes in Lewis rat assessed as remaining circulating lymphocytes level at 100 mg/kg, po administered as single dose measured 14 hrs post dose by automated hematology analyzer; assay type: functional
Measured endpoint: Activity (%)
Enter your answer as a number in %; do not include the unit.

Recorded results for 4 compounds are shown here.
Substance smiles | Activity, %
COC(=O)[C@H](C)NC(=O)c1c(C)cc(-c2cccc(NS(=O)(=O)c3cc(C)c(Cl)cc3C)c2)cc1C | 24
COC(=O)[C@H](CN(C)C)N(C)C(=O)c1c(C)cc(-c2cccc(NS(=O)(=O)c3cc(C)c(Cl)cc3C)c2)cc1C | 37
COC(=O)[C@H](C)N(C)C(=O)c1c(C)cc(-c2cccc(NS(=O)(=O)c3cc(C)c(Cl)cc3C)c2)cc1C | 21
COC(=O)[C@H](CCN)NC(=O)c1c(C)cc(-c2cccc(NS(=O)(=O)c3cc(C)c(Cl)cc3C)c2)cc1C | 76

Below: the item to evaluate.
query: Recorded Activity of COC(=O)[C@H](CCN(C)C)NC(=O)c1c(C)cc(-c2cccc(NS(=O)(=O)c3cc(C)c(Cl)cc3C)c2)cc1C , please.
result: 15

---

assay: Drug level in Lewis rat blood at 30 mg/kg, po administered as single dose measured 0.25 hrs post dose; conditions: read-out: Drug uptake
Measured endpoint: concentration at 0.25 h
Please don't drop the unit; write it after the number.

query: Need concentration at 0.25 h, item COC(=O)[C@H](CCN(C)C)N(C)C(=O)c1c(C)cc(-c2cccc(NS(=O)(=O)c3cc(C)c(Cl)cc3C)c2)cc1C
result: 146 ng/mL

---

assay: Stability in pH 1 buffer by UPLC; type: physicochemical; details: read-out: Stability
Measured endpoint: half-life

query: Data request, read-out half-life, for COC(=O)[C@H](CCN(C)C)N(C)C(=O)c1c(C)cc(-c2cccc(NS(=O)(=O)c3cc(C)c(Cl)cc3C)c2)cc1C
result: > 53 h

---

target: Sphingosine 1-phosphate receptor 2 (Homo sapiens); experiment: Antagonist activity at human S1P2R receptor expressed in CHO cell membranes by [35S]GTPgamma binding assay; assay type: functional
Sequence (O95136 whole entry): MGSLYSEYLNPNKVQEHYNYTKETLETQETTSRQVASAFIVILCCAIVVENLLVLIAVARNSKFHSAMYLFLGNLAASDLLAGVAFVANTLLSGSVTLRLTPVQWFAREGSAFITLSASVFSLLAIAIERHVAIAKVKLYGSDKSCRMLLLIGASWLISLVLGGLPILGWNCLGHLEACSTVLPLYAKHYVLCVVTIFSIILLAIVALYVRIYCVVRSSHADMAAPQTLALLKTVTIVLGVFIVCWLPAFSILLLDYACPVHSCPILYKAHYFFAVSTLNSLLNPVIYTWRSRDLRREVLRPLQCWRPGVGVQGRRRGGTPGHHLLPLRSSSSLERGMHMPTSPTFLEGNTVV
Measured endpoint: IC50

query: Would you mind telling me what IC50 value was observed for Cc1cc(S(=O)(=O)Nc2cccc(-c3cc(C)c(C(=O)N(C)[C@@H](CCN(C)C)C(=O)O)c(C)c3)c2)c(C)cc1Cl ?
result: > 10 µM
